- System: NCI-H647
- TEST: relative viability (nuclei count vs DMSO), 5 days (fraction); higher = more cells survive
- APPLIED_CONDITIONS: first compound 0.253 µM
Exercise: state measured relative viability for each of the compounds provided.
Output spec: single numeric token, no unit.

Query block: Determine from records and report relative viability for COc1nc(C)cnc1NS(=O)(=O)c1cccnc1-c1ccc(-c2nnco2)cc1 [Zibotentan] + CCNC(=O)c1noc(-c2cc(C(C)C)c(O)cc2O)c1-c1ccc(CN2CCOCC2)cc1 [Luminespib] (partner 0.01 µM)
Result block: 0.16

Query block: Determine from records and report relative viability for COc1nc(C)cnc1NS(=O)(=O)c1cccnc1-c1ccc(-c2nnco2)cc1 [Zibotentan] + CC1(C)CCC(c2ccc(Cl)cc2)=C(CN2CCN(c3ccc(C(=O)NS(=O)(=O)c4ccc(N[C@H](CCN5CCOCC5)CSc5ccccc5)c(S(=O)(=O)C(F)(F)F)c4)cc3)CC2)C1 [Navitoclax] (partner 0.5 µM)
Result block: 0.875
